System: NCI/ADR-RES ovarian
Assay: NCI tumour cell line growth inhibition, 48 h
Reported GI50 values for a set of compounds

Smiles Text: O=C(/C=C/c1ccccc1)c1ccc(O)c(CN2CCN(c3cc4c(cc3F)c(=O)c(C(=O)O)cn4C3CC3)CC2)c1
GI50: 7.86 µM

Smiles Text: COc1cc2c(c(OC)c1OC)C(=O)c1c-2n(CCCN)c(=O)c2cc([N+](=O)[O-])ccc12
GI50: 2.03 µM

Smiles Text: COc1cc(C)c(N(C)C(=O)CN(C)C)cc1Nc1nc(Nc2cccc(F)c2C(N)=O)c2cc[nH]c2n1
GI50: > 25 µM

Smiles Text: CC(C)(C)OC(=O)N(CCCn1c2c(c3ccccc3c1=O)C(=O)c1ccccc1-2)CCN(CCCn1c2c(c3ccccc3c1=O)C(=O)c1ccccc1-2)C(=O)OC(C)(C)C
GI50: > 50 µM

Smiles Text: COc1cc2c3c(n(CCCn4cccn4)c(=O)c2cc1OC)-c1cc2c(cc1C3=O)OCO2
GI50: 1.3 µM

Smiles Text: CCOc1ccc2c(-c3ccnc(Nc4cccc(C(F)(F)F)c4)n3)cnn2n1
GI50: 9.04 µM

Smiles Text: CC(C)NCCCNC1=C(Cl)C(=O)c2ccccc2C1=O
GI50: 12 µM

Smiles Text: C[C@]1(O)CC(=O)[C@]2(O)C3=C(C=C[C@]2(O)C1)C(=O)c1c(O)cccc1C3=O
GI50: 5.84 µM
